Listed here: items and their measured log10 p-GPT.
System: liver damage induced by carbon tetrachloride
Assay: Protective (Controlling) effect on liver damage induced by carbon tetrachloride
Assay type: in vivo, mice (dd strain)
Settings: 250 mg/kg p.o., CCl4 0.05 ml/kg after 6 h, 24 h; CCl4 alone >2,100
Hi team, quick reminder: these entries are log10 of p-GPT (Karmen units).

Recorded log10 p-GPT, per entry:
CCCOC(=O)C(C(=O)OCCC)=C1SC2OC(=S)OC2S1 (centres unmarked) [Compound 108]: 1.49
COCCOC(=O)C(C(C)=O)=C1SC(O)C(O)S1 (centres unmarked) [Compound 47]: 1.40
C#CCOC(=O)C(C(=O)OCC#C)=C1SC(O)C(O)S1 (centres unmarked) [Compound 13]: 1.48
CC(C)COC(=O)C(C(=O)OC(C)C)=C1SC(O)C(O)S1 (centres unmarked) [Compound 22]: 0.95

Kindly consider the entry below.
Quick one: log10 p-GPT for O=C(OC1CCCCC1)C(C(=O)OC1CCCCC1)=C1SC(O)C(O)S1 (centres unmarked) [Compound 10] ? 1.86

---

Test system: liver damage induced by carbon tetrachloride
Assay: Protective (Controlling) effect on liver damage induced by carbon tetrachloride
Assay type: in vivo, mice (dd strain)
Conditions: 250 mg/kg p.o., CCl4 0.05 ml/kg after 6 h, 24 h; CCl4 alone >2,100
Lab note: cut-off is 50 Karmen units. Strictly less in p-GPT is 1. Exactly 50 Karmen units or more is 0.

O=C1OC2SC(=C(C(=O)OCc3ccccc3)C(=O)OCc3ccccc3)SC2O1 (centres unmarked): 0
CCCCCOC(=O)C(C(C)=O)=C1SC(O)C(O)S1 (centres unmarked): 1
CCCOC(=O)C(C(=O)OC(C)C)=C1SC(O)C(O)S1 (centres unmarked): 1
CCC(C)OC(=O)C(C(=O)OC(C)CC)=C1SC(O)C(O)S1 (centres unmarked): 1
CCCCOC(=O)C(C(=O)OC(C)C)=C1SC(O)C(O)S1 (centres unmarked): 1

Here's the next entry for you.
Criterion: p-GPT strictly below 50 Karmen units. Is it met by C=CCOC(=O)C(C(=O)OCC=C)=C1SC2OC(=O)OC2S1 (centres unmarked) ? 1

---

Experiment: water solubility
Assay type: physicochemical
Details: in water at 20° C.; read-out: water solubility
Readout label: solubility (µg/mL)
Supply the numeric figure in µg/mL, leaving out any unit text.

Quick one: solubility for CC(C)OC(=O)C(C(=O)OC(C)C)=C1SC(O)C(O)S1 (stereo not shown) [Compound 23] ? 2000

---

Listed here: items and their measured p-GPT.
System: liver damage induced by α-naphthyl isothiocyanate (ANIT)
Assay: Protective effect on liver damage induced by ANIT (Method 2)
Type: in vivo, mice (dd strain)
Settings: Table 3-3; 250 mg/kg p.o., ANIT 35 mg/kg p.o. after 6 h, 24 h; control 17.5, ANIT alone >460.2
Supply the numeric figure in K.U., leaving out any unit text.

Recorded p-GPT, per entry:
CC(=O)C(C(=O)OCCC(C)C)=C1SC(O)C(O)S1 (centres unmarked): 298.9
CC(=O)C(C(=O)OC(C)(C)C)=C1SC(O)C(O)S1 (centres unmarked): 132.7
COCCOC(=O)C(C(C)=O)=C1SC(O)C(O)S1 (centres unmarked): 40.1

Quick one: p-GPT for CC(=O)C(C(=O)OC(C)C)=C1SC(O)C(O)S1 (centres unmarked) ? 177.4

Another compound: CC(=O)C(C(=O)OCC(C)C)=C1SC(O)C(O)S1 (centres unmarked) 70.7

---

Experiment: acute oral toxicity (LD50)
Details: in vivo, male rat
Listed here: items and their measured LD50.

Recorded LD50, per entry:
CCCCCOC(=O)C(C(=O)OCCCCC)=C1SC(O)C(O)S1 (centres unmarked) [Compound 8]: > 5000 mg/kg
COC(=O)C(C(=O)OC)=C1SC(O)C(O)S1 (centres unmarked) [Compound 1]: 1000 to 3000 mg/kg
CCCOC(=O)C(C(=O)OCCC)=C1SC(O)C(O)S1 (centres unmarked) [Compound 3]: > 5000 mg/kg
C=CCOC(=O)C(C(=O)OCC=C)=C1SC(O)C(O)S1 (centres unmarked) [Compound 12]: 1000 to 3000 mg/kg

Quick one: LD50 for CCOC(=O)C(C(=O)OCC)=C1SC(O)C(O)S1 (centres unmarked) [Compound 2] ? 3000 to 5000 mg/kg

---

Test system: liver damage induced by α-naphthyl isothiocyanate (ANIT)
Experiment: Protective effect on liver damage induced by ANIT (Method 2)
Assay type: in vivo, mice (dd strain)
Details: Table 3-3; 250 mg/kg p.o., ANIT 35 mg/kg p.o. after 6 h, 24 h; control 17.5, ANIT alone >460.2
Readout label: p-GPT (K.U.)
Supply the numeric figure in K.U., leaving out any unit text.

CC(=O)C(C(=O)OCc1ccccc1)=C1SC(O)C(O)S1 (centres unmarked) [Compound 48]: 36.8
CCC(C)OC(=O)C(C(C)=O)=C1SC(O)C(O)S1 (centres unmarked) [Compound 40]: 272.5
C#CCOC(=O)C(C(C)=O)=C1SC(O)C(O)S1 (centres unmarked) [Compound 46]: 29.9

Quick one: p-GPT for C=CCOC(=O)C(C(C)=O)=C1SC(O)C(O)S1 (centres unmarked) [Compound 45] ? 136.9

Another molecule: CCCCOC(=O)C(C(C)=O)=C1SC(O)C(O)S1 (centres unmarked) [Compound 38] 29.4

---

Test system: liver damage induced by carbon tetrachloride
Assay: Protective (Controlling) effect on liver damage induced by carbon tetrachloride
Type: in vivo, mice (dd strain)
Conditions: 250 mg/kg p.o., CCl4 0.05 ml/kg after 6 h, 24 h; CCl4 alone >2,100
Lab note: cut-off is 30 Karmen units. Strictly less in p-GPT is true. Exactly 30 Karmen units or more is false.

Here's what some known entries look like.
CC(C)COC(=O)C(C(=O)OCC(C)C)=C1SC(O)C(O)S1 (centres unmarked): false
COC(=O)C(C(=O)OC)=C1SC2OC(=O)OC2S1 (centres unmarked): false
CCCOC(=O)C(C(C)=O)=C1SC2OC(=O)OC2S1 (centres unmarked): true
CCOC(=O)C(C(=O)CC(C)C)=C1SC2OC(=O)OC2S1 (centres unmarked): true
O=C1OC2SC(=C(C(=O)OC3CCCCC3)C(=O)OC3CCCCC3)SC2O1 (centres unmarked): false
CC(=O)OC1SC(=C(C(=O)OC(C)C)C(=O)OC(C)C)SC1O (centres unmarked): false
CCOC(=O)C(C(C)=O)=C1SC2OC(=O)OC2S1 (centres unmarked): false
CC(=O)C(C(=O)OC1CCCCC1)=C1SC(O)C(O)S1 (centres unmarked): false
CC(C)OC(=O)C(C(=O)OC(C)C)=C1SC2OC(=O)OC2S1 (centres unmarked): true
C=CCOC(=O)C(C(C)=O)=C1SC2OC(=O)OC2S1 (centres unmarked): true

Criterion: p-GPT strictly below 30 Karmen units. Is it met by CCCCCOC(=O)C(C#N)=C1SC(O)C(O)S1 (centres unmarked) ? false

Another compound: CCCCC(=O)C(C(=O)OCC)=C1SC(O)C(O)S1 (centres unmarked) true

Another compound: CCCCCCOC(=O)C(C#N)=C1SC(O)C(O)S1 (centres unmarked) false

---

Tested on: liver damage induced by carbon tetrachloride
Test: Protective (Controlling) effect on liver damage induced by carbon tetrachloride
Type: in vivo, mice (dd strain)
Settings: 250 mg/kg p.o., CCl4 0.05 ml/kg after 6 h, 24 h; CCl4 alone >2,100
Procedure: Protective (Controlling) Effect on liver damage induced by carbon tetrachloride. Carbon tetrachloride administration induces centrilobular necrosis of the liver associated with loss of diphosphopyridine nucleotide, hepatic glycogen, coenzyme A and increase in neutral fat. […] The plasma was obtained by centrifugation. Activity of p-GPT were determined by the method of Reitman and Frankel and expressed in Karmen units. […]
Class class 1: p-GPT at least 20 Karmen units. Class class 0: p-GPT below 20 Karmen units.

Here's what some known entries look like.
CCCOC(=O)C(C(=O)OCCC)=C1SC2OC(=O)OC2S1 (centres unmarked) [Compound 74]: class 1
CC(=O)C(C(=O)OCC(C)C)=C1SC(O)C(O)S1 (centres unmarked) [Compound 39]: class 0
C#CCOC(=O)C(C(C)=O)=C1SC2OC(=O)OC2S1 (centres unmarked) [Compound 99]: class 0
CCCCCCC(=O)C(C(=O)OCC)=C1SC2OC(=O)OC2S1 (centres unmarked) [Compound 105]: class 1

Here's the next entry for you.
Check this compound for p-GPT at or above 20 Karmen units: CCCOC(=O)C(C(C)=O)=C1SC(OC(C)=O)C(OC(C)=O)S1 (centres unmarked) [Compound 61] class 1

---

System: liver damage induced by α-naphthyl isothiocyanate (ANIT)
Assay: Protective effect on liver damage induced by ANIT (Method 2)
Type: in vivo, mice (dd strain)
Conditions: Table 3-3; 250 mg/kg p.o., ANIT 35 mg/kg p.o. after 6 h, 24 h; control 17.5, ANIT alone >460.2
Readout label: p-GPT (K.U.)
Supply the numeric figure in K.U., leaving out any unit text.

Recorded p-GPT, per entry:
CCCOC(=O)C(C(C)=O)=C1SC(O)C(O)S1 (centres unmarked): 60.0
COC(=O)C(C(C)=O)=C1SC(O)C(O)S1 (centres unmarked): 32.7

Quick one: p-GPT for CCCCCOC(=O)C(C(C)=O)=C1SC(O)C(O)S1 (centres unmarked) ? 30.8

Another compound: CC(=O)C(C(=O)OC1CCCCC1)=C1SC(O)C(O)S1 (centres unmarked) 140.2
